meta.source: patent US20240383852A1

biological target: SARS-CoV-2 PLpro (Severe acute respiratory syndrome coronavirus 2, UniProt P0DTD1); construct: containing 60 nM papain-like protease; experiment: biochemical; settings: 60 nM papain-like protease, 50 μM Z-RLRGG-AMC, pH 7.5, 37° C.; read-out: SARS-CoV-2 PLpro IC50
Where a name gives a salt, the structure may show the parent alone.
REPORTED ENDPOINT: IC50

COMPOUND | TEST RESULT
Cc1ccc(N2CCCN(CCS(C)(=O)=O)CC2)cc1C(=O)N[C@H](C)c1cccc2ccccc12 | < 20 µM
C[C@@H](NC(=O)c1ccnc(N2CCN(C)CC2)n1)c1cccc2ccccc12 [Example 316, Hydrochloride Salt] | < 100 µM
Cc1ccc(N2CCNCC2)cc1C(=O)N[C@H](C)c1cccc2ccccc12 | < 2 µM
Cc1ccc(N2CCN(C)CC2)cc1C(=O)N[C@H](C)c1cccc(-c2csc(C(=O)N(C)C)c2)c1 | < 2 µM
C[C@@H](NC(=O)c1cc(N2CCN(C)CC2)ccn1)c1cccc2ccccc12 | > 100 µM
Cc1ccc(N2CCN(C)CC2)cc1C(=O)N[C@H](C)c1cccc(-c2cn(C)nc2C)c1 | < 2 µM

----------
target: SARS-CoV-2 PLpro (Severe acute respiratory syndrome coronavirus 2); construct: containing 60 nM papain-like protease; test: biochemical; conditions: 60 nM papain-like protease, 50 μM Z-RLRGG-AMC, pH 7.5, 37° C.; read-out: SARS-CoV-2 PLpro IC50
pIC50: −log10 of the molar value.
Recorded pIC50 values for a group of molecules are listed next.
REPORTED ENDPOINT: pIC50

MOLECULE | TEST RESULT
Cc1ccc(N2CCN(C)C(C)C2)cc1C(=O)N[C@H](C)c1cccc2ccccc12 (stereo partly shown) | > 5.70
Cc1ccc(-c2cccc(CCN3CCOCC3)c2)cc1C(=O)N[C@H](C)c1cccc2ccccc12 | < 4.00
Cc1ccc(N2C[C@H]3C[C@@H]2CN3C)cc1C(=O)N[C@H](C)c1cccc(-c2cccc(C(C)(C)O)c2)c1 | > 5.70
COc1ccc([C@@H](C)NC(=O)c2cc(N3CCN(C)CC3)ccc2C)cc1Cl | > 5.70

----------
tested on: human Hep G2 cells (ATCC HB-8065); assay: Cytotoxicity in Hep G2 cells (CellTiter-Glo); type: cell-based; settings: Hep G2 cells, 100 μM test article, 24-hour exposure
Returns: string. Value is Fulfilled if measured % Cell Viability is below 70%, and Not fulfilled if it is greater than or equal to it.

QUERY SMILES | TESTED SYSTEM | LABEL
COc1cc([C@@H](C)NC(=O)c2cc(N3CCN(C)CC3)ccc2C)ccc1OCc1ccccc1 | human Hep G2 cells (ATCC HB-8065) | Fulfilled
COc1ccc([C@@H](C)NC(=O)c2cc(N3CCN(C)CC3)ccc2C)cc1-c1cccc(C(C)(C)O)c1 | human Hep G2 cells (ATCC HB-8065) | Not fulfilled
COc1ccc([C@@H](C)NC(=O)c2cc(N3CCN(C)CC3)ccc2C)cc1-c1cnn(C)c1C | human Hep G2 cells (ATCC HB-8065) | Not fulfilled
Cc1ccc(N2CCN(C)CC2)cc1C(=O)N[C@H](C)c1ccc(OCc2ccccc2)c(-c2cnn(C)c2)c1 | human Hep G2 cells (ATCC HB-8065) | Fulfilled
Cc1ccc(N2CCN(C)CC2)cc1C(=O)N[C@H](C)c1cccc(-c2ccc(=O)n(C)c2)c1 | human Hep G2 cells (ATCC HB-8065) | Fulfilled
Cc1ccc(N2CCN(C)CC2)cc1C(=O)N[C@H](C)c1cccc(-c2cc(CO)cc(CO)c2)c1 | human Hep G2 cells (ATCC HB-8065) | Not fulfilled
COc1cc(-c2cnn(C)c2)cc([C@@H](C)NC(=O)c2cc(N3C[C@H]4C[C@@H]3CN4C)ccc2C)c1 | human Hep G2 cells (ATCC HB-8065) | Fulfilled
COC(=O)CCN1CCN(c2cccc(C(=O)N[C@H](C)c3cccc4ccccc34)c2)CC1 | human Hep G2 cells (ATCC HB-8065) | Not fulfilled

----------
target: SARS-CoV-2 PLpro (Severe acute respiratory syndrome coronavirus 2); construct: containing 60 nM papain-like protease; assay: biochemical; conditions: 60 nM papain-like protease, 50 μM Z-RLRGG-AMC, pH 7.5, 37° C.; read-out: SARS-CoV-2 PLpro IC50

MOLECULE | IC50
COc1ccc([C@@H](C)NC(=O)c2cc(N3CC4CNCC4C3)ccc2C)cc1-c1cnn(C)c1 (some centres unmarked) | < 2 µM
Cc1ccc(N2CCN(C)CC2)cc1C(=O)N[C@H](C)c1cccc(N2CCN(C)CC2)c1 | < 5 µM
Cc1ccc(N2CCN(C)CC2)cc1C(=O)N[C@H](C)c1cccc(-c2cccc(C(O)CO)c2)c1 (some centres unmarked) | < 2 µM
Cc1ccc(N2CCN(C)CC2)cc1C(=O)N[C@H](C)c1cccc(C(O)CO)c1 (some centres unmarked) | < 10 µM
C[C@@H](NC(=O)c1cc(-c2ccccc2)ccn1)c1cccc2ccccc12 | > 100 µM

----------
test system: human Hep G2 cells (ATCC HB-8065); experiment: Cytotoxicity in Hep G2 cells (CellTiter-Glo); type: cell-based; details: Hep G2 cells, 100 μM test article, 24-hour exposure

COMPOUND | % Cell Viability (%)
Cc1ccc(C2CCN(C)CC2)cc1C(=O)N[C@H](C)c1cccc2ccccc12 [Example 157] | 1.5
Cc1ccc(N2CCN(C)CC2)cc1C(=O)N[C@H](C)c1cccc(N2CCN(C)CC2)c1 [Example 103] | 91.4
Cc1ccc(-c2ccnc(N3CCNCC3)c2)cc1C(=O)N[C@H](C)c1cccc2ccccc12 [Example 140] | 0.8
COc1ccc([C@@H](C)NC(=O)c2cc(N3CCN(C)CC3)ccc2C)cc1C1CCNCC1 [Example 237] | 87.9
Cc1ccc(N2CCN(C)CC2)cc1C(=O)N[C@H](C)c1ccc(Cl)c(-c2cnn(C)c2)c1 [Example 252] | 49.4
Cc1ccc(N2CCN(C)CC2)cc1C(=O)N[C@H](C)c1cccc(-c2ccc(N)nc2)c1 [Example 67] | 58.7

----------
tested on: human Hep G2 cells (ATCC HB-8065); experiment: Cytotoxicity in Hep G2 cells (CellTiter-Glo); assay type: cell-based; details: human, 24 h, 100 μM
Recorded % Cell Viability values for a group of compounds are listed next.

QUERY SMILES | % Cell Viability
Cc1ccc(C2=CCNCC2)cc1C(=O)N[C@H](C)c1cccc2ccccc12 | 2.1%
COc1cc(-c2cnn(C)c2)cc([C@@H](C)NC(=O)c2cc(N3C[C@H]4CC[C@@H](C3)N4)ccc2C)c1 | 74.3%
COc1cc([C@@H](C)NC(=O)c2cc(N3C[C@H]4CC[C@@H](C3)N4)ccc2C)ccc1OCC1CC1 | 43.9%

----------
target: SARS-CoV-2 PLpro (Severe acute respiratory syndrome coronavirus 2); construct: containing 60 nM papain-like protease; assay: biochemical; conditions: 60 nM papain-like protease, 50 μM Z-RLRGG-AMC, pH 7.5, 37° C.; read-out: SARS-CoV-2 PLpro IC50
Structures can show the parent of a compound that is named as a salt.
REPORTED ENDPOINT: IC50

MOLECULE | REPORTED ENDPOINT | TEST RESULT
COc1ccc([C@@H](C)NC(=O)c2cc(N3CCN(C)CC3)ccc2C)cc1C1CCN(CCC(=O)O)CC1 [Example 238] | IC50 | < 10 µM
C[C@@H](NC(=O)c1cccc(C(=O)N2CCN(C)CC2)c1)c1cccc2ccccc12 [Example 173] | IC50 | > 100 µM
Cc1ccc(N2CCN(C)CC2)cc1C(=O)N[C@H](C)c1ccc(OCc2ccccc2)c(-c2cnn(C)c2)c1 [Example 249] | IC50 | < 2 µM
C[C@@H](NC(=O)c1cc(C2=CCNC2)cn1C)c1cccc2ccccc12 [Example 149, Hydrochloride Salt] | IC50 | < 100 µM
Cc1ccc(N2CCN(C)CC2)cc1C(=O)N[C@H](C)c1cccc(-c2cccc(C(=O)N3CCOCC3)c2)c1 [Example 92] | IC50 | < 2 µM
COc1cc(-c2cnn(C)c2)cc([C@@H](C)NC(=O)c2cc(C3CCN(C)CC3)ccc2C)c1 [Example 302] | IC50 | < 2 µM
Cc1ccc(N2CCN(C)CC2)cc1C(=O)N[C@H](C)c1cccc(C#CCO)c1 [Example 315] | IC50 | < 5 µM
Cc1ccc(N2CCN(C)CC2)cc1C(=O)N[C@H](C)c1cccc(C(=O)NCCO)c1 [Example 313] | IC50 | < 20 µM
Cc1ccc(N2CCN(C)CC2)cc1C(=O)N[C@H](C)c1cc(Cl)cc(-c2cnn(C)c2)c1 [Example 257] | IC50 | < 2 µM

----------
target: SARS-CoV-2 PLpro (Severe acute respiratory syndrome coronavirus 2); construct: containing 60 nM papain-like protease; assay: biochemical; details: 60 nM papain-like protease, 50 μM Z-RLRGG-AMC, pH 7.5, 37° C.; read-out: SARS-CoV-2 PLpro IC50
Recorded IC50 values for a group of molecules are listed next.

MOLECULE | IC50
Cc1ccc(N2CCN(C)CC2)cc1C(=O)N[C@H](C)c1cccc(C(=O)N(C)C)c1 [Example 311] | < 20 µM
C[C@@H](NC(=O)c1cccc(N2CCCCC2)c1)c1cccc2ccccc12 [Example 1] | > 100 µM
Cc1ccc(C2CCNCC2)cc1C(=O)N[C@H](C)c1cccc2ccccc12 [Example 156] | < 2 µM
COc1cc(OC)cc([C@@H](C)NC(=O)c2cc(N3CCN(C)CC3)ccc2C)c1 [Example 31] | < 5 µM
